Molecular target: T1, human IL-18 binding protein isoform a (IL-18BPa) (Homo sapiens, UniProt O95998)
T1 sequence (O95998 31-194): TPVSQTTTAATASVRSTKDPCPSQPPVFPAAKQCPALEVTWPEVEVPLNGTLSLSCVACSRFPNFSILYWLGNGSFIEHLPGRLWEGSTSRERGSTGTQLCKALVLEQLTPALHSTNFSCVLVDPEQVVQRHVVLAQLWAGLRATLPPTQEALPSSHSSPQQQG
Assay: IL-18 Binding Protein inhibition cellular assay in NK-92 cells (Example 4 / 17C)
Assay type: cell-based
Settings: inhibition by IL-18BP of IFNγ stimulation in NK92 cells
Value Kind: pIC50
Just the number, please; pIC50 means minus log10 of the concentration in mol/L.

Example entries begin here.
- Molecule: "C160: IL-18 polypeptide: V11I, C38A, K53A, C76A, D110A, C127A (protein) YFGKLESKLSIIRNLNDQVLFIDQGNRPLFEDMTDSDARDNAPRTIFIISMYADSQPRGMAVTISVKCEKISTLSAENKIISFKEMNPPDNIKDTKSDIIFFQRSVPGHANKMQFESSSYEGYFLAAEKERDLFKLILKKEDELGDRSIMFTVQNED"
  Recorded Value: 8.50
- Molecule: "C161: IL-18 polypeptide: K8R, V11I, C38A, C76A, Q103E, C127A (protein) YFGKLESRLSIIRNLNDQVLFIDQGNRPLFEDMTDSDARDNAPRTIFIISMYKDSQPRGMAVTISVKCEKISTLSAENKIISFKEMNPPDNIKDTKSDIIFFERSVPGHDNKMQFESSSYEGYFLAAEKERDLFKLILKKEDELGDRSIMFTVQNED"
  Recorded Value: 8.97

Below: the item to evaluate.
*Q* # pIC50 lookup, item C150: IL-18 polypeptide: V11I, T34A, C38A, K53A, C76A, C127A (protein) YFGKLESKLSIIRNLNDQVLFIDQGNRPLFEDMADSDARDNAPRTIFIISMYADSQPRGMAVTISVKCEKISTLSAENKIISFKEMNPPDNIKDTKSDIIFFQRSVPGHDNKMQFESSSYEGYFLAAEKERDLFKLILKKEDELGDRSIMFTVQNED
*A* 7.67

Values from patent US12383631B2
